# Assay notes: xn = mol fraction of the nth substance listed, in the solute-free solvent
# Settings: 308.15 K; x2 = 0.2307
Mark fulfilled for reported solubility (g/100 g solution) of 0.1 or greater; mark not fulfilled for anything smaller.

Examples from the recorded data:
- Compound: "c1ccc2[nH]c(-c3cscn3)nc2c1 + CC(C)O + O"
  Label value: "fulfilled"
- Compound: "Nc1cccc(S(=O)(=O)c2cccc(N)c2)c1 + CC(C)O + O"
  Label value: "fulfilled"
- Compound: "c1ccc2[nH]c(-c3cscn3)nc2c1 + CCCO + O"
  Label value: "fulfilled"
- Compound: "Cc1[nH]c(=O)c(C#N)cc1-c1ccncc1 + CC(C)O + O"
  Label value: "not fulfilled"
- Compound: "CN1CCN(C2=Nc3cc(Cl)ccc3Nc3ccccc32)CC1 + CC(C)O + O"
  Label value: "fulfilled"

Attention now turns to another entry.
Hello, I need to know if Nc1nccnc1Cl + CC(C)O + O has measured solubility (g/100 g solution) not below 0.1. Thanks!
fulfilled

----------
Assign solubility (g/100 g solution) to each entry below.
# Assay notes: xn = mol fraction of the nth substance listed, in the solute-free solvent
# Settings: 283.15 K; x2 = 0.1139
Numbers only.

These recorded examples may help you get a feel for the data.
- Molecule: "c1ccc2[nH]c(-c3cscn3)nc2c1 + CC(C)O + O"
  Measured value: 0.0206
- Molecule: "Nc1cccc(S(=O)(=O)c2cccc(N)c2)c1 + CC(C)O + O"
  Measured value: 0.169
- Molecule: "Cc1[nH]c(=O)c(C#N)cc1-c1ccncc1 + CC(C)O + O"
  Measured value: 0.00311
- Molecule: "CN1CCN(C2=Nc3cc(Cl)ccc3Nc3ccccc32)CC1 + CC(C)O + O"
  Measured value: 0.0775
- Molecule: "c1ccc2[nH]c(-c3cscn3)nc2c1 + CCCO + O"
  Measured value: 0.0334

# input for lookup
Need solubility (g/100 g solution) of Nc1nccnc1Cl + CC(C)O + O , thanks.
0.168

----------
# Assay notes: xn = mol fraction of the nth substance listed, in the solute-free solvent
# Settings: 308.15 K; x2 = 0.1436
Assign solubility (g/100 g solution) to each entry below.
Answers are plain numbers.

- Compound: "Nc1cccc(S(=O)(=O)c2cccc(N)c2)c1 + CCO + O"
  solubility (g/100 g solution): 0.744

Parameters: items (list). Returns: solubility (g/100 g solution) for each item.
1. Cc1[nH]c(=O)c(C#N)cc1-c1ccncc1 + CCO + O
2. COc1cc2c(cc1OC)-c1cc3ccc(OC)c(OC)c3c[n+]1CC2.[Cl-] + CCO + O
3. CC(C)OC(=O)C(C)NP(=O)(OCC1OC(n2ccc(=O)[nH]c2=O)C(C)(F)C1O)Oc1ccccc1 (centres undefined) + CCO + O

1: 0.00294; 2: 3.77; 3: 14.7

----------
# Assay notes: xn = mol fraction of the nth substance listed, in the solute-free solvent
# Settings: 298.15 K; x2 = 0.1139
Reported metric: solubility (g/100 g solution)

These recorded examples may help you get a feel for the data.
- Compound: "Cc1[nH]c(=O)c(C#N)cc1-c1ccncc1 + CC(C)O + O"
  Measured value: 0.00498
- Compound: "CN1CCN(C2=Nc3cc(Cl)ccc3Nc3ccccc32)CC1 + CC(C)O + O"
  Measured value: 0.144
- Compound: "Nc1nccnc1Cl + CC(C)O + O"
  Measured value: 0.321
- Compound: "c1ccc2[nH]c(-c3cscn3)nc2c1 + CC(C)O + O"
  Measured value: 0.0374
- Compound: "Nc1cccc(S(=O)(=O)c2cccc(N)c2)c1 + CC(C)O + O"
  Measured value: 0.375

# input for lookup
Need solubility (g/100 g solution) of c1ccc2[nH]c(-c3cscn3)nc2c1 + CCCO + O , thanks.
0.0585

Data credit: the CheMixHub drug solubility set
